# assayInfo: Plasma pharmacokinetics of REG, M-2 and M-5 in rats after single oral REG with or without ATO (UPLC-MS/MS, non-compartmental analysis)
# Format: in vivo, male Wistar rats
# statedConditions: male, Wistar, rat, plasma, po, 20 mg/kg, IIREG group: single oral REG 20 mg/kg b.w. alone, rat plasma, n = 8; median (quartiles)
reportedProperty: AUC(0-t) (ng·h/mL)
Use ng·h/mL as the unit, but write only the number.

Fill in the blank: the reported AUC(0-t) of CNC(=O)c1cc(Oc2ccc(NC(=O)Nc3ccc(Cl)c(C(F)(F)F)c3)c(F)c2)ccn1 [REG, regorafenib, reference compound] is ____.
35800

---

# assayInfo: Plasma pharmacokinetics of REG, M-2 and M-5 in rats after single oral REG with or without ATO (UPLC-MS/MS, non-compartmental analysis)
# Type: in vivo, male Wistar rats
# statedConditions: male, Wistar, rat, plasma, po, 20 mg/kg, IREG+ATO group: single oral REG 20 mg/kg + ATO 20 mg/kg b.w., n = 8; median (quartiles)
# Experimental: Nonetheless, no other experimental conditions were changed. Next, 20 μL of acetonitrile was added. The samples were mixed for 10 min and then centrifuged for 10 min at 8500 rpm. 50 μL of the resulting supernatant was filtered and used for further analysis. Each sample was analyzed twice, and the arithmetic mean was determined from the surface areas obtained in the chromatogram. […]
reportedProperty: Vd/F

// query Vd/F value for entry CNC(=O)c1cc(Oc2ccc(NC(=O)Nc3ccc(Cl)c(C(F)(F)F)c3)c(F)c2)ccn1 [REG, regorafenib, reference compound]
0.51 L

---

# assayInfo: Plasma pharmacokinetics of REG, M-2 and M-5 in rats after single oral REG with or without ATO (UPLC-MS/MS, non-compartmental analysis)
# Type: in vivo, male Wistar rats
# statedConditions: male, Wistar, rat, plasma, po, 20 mg/kg, IREG+ATO group: single oral REG 20 mg/kg + ATO 20 mg/kg b.w., rat plasma, n = 8; median (quartiles)
reportedProperty: AUC(0-inf) (µg·h/mL)
# value in µg·h/mL; strip the unit string

Give the measured AUC(0-inf) of CNC(=O)c1cc(Oc2ccc(NC(=O)Nc3ccc(Cl)c(C(F)(F)F)c3)c(F)c2)ccn1 [REG, regorafenib, reference compound] .
163

---

# assayInfo: Plasma pharmacokinetics of REG, M-2 and M-5 in rats after single oral REG with or without ATO (UPLC-MS/MS, non-compartmental analysis)
# Type: in vivo, male Wistar rats
# statedConditions: male, Wistar, rat, plasma, po, 20 mg/kg, IIREG group: single oral REG 20 mg/kg b.w. alone, n = 8; median (quartiles)
reportedProperty: Vd/F (L)
Lab book: enter the figure in L, no units written.

If you can, please state the reported Vd/F value of CNC(=O)c1cc(Oc2ccc(NC(=O)Nc3ccc(Cl)c(C(F)(F)F)c3)c(F)c2)ccn1 [REG, regorafenib, reference compound] .
1.98

---

# assayInfo: Plasma pharmacokinetics of REG, M-2 and M-5 in rats after single oral REG with or without ATO (UPLC-MS/MS, non-compartmental analysis)
# Format: in vivo, male Wistar rats
# statedConditions: male, Wistar, rat, plasma, po, 20 mg/kg, IREG+ATO group: single oral REG 20 mg/kg + ATO 20 mg/kg b.w., n = 8; median (quartiles)
reportedProperty: Tmax (h)
A number alone suffices; assume h.

// Tmax lookup, key: CNC(=O)c1cc(Oc2ccc(NC(=O)Nc3ccc(Cl)c(C(F)(F)F)c3)c(F)c2)ccn1 [REG, regorafenib, reference compound]
5
